Target sequence: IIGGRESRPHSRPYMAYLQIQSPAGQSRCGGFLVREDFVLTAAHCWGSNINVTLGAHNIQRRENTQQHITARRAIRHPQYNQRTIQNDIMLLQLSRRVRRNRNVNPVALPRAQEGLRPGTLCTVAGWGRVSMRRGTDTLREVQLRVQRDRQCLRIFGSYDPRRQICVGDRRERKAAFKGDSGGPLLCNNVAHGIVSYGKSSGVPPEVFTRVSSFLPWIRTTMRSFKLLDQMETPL
pIC50: −log10 of the molar value.
quantityName: pIC50

// solved cases for pIC50 follow
compound | quantityName | result
Cc1cccc2nc([C@H](CC(C)C)NC(=O)OCC3c4ccccc4-c4ccccc43)oc(=O)c12 [Compound 2] | pIC50 | < 5.27
Cc1cccc2nc(CNC(=O)COC3c4ccccc4-c4ccccc43)oc(=O)c12 [Compound 7] | pIC50 | < 5.12

Name the recorded pIC50 for CC(=O)N(CCC(=O)N[C@H](c1nc2cccc(C)c2c(=O)o1)C(C)C)C1c2ccccc2-c2ccccc21 [Compound 5] . < 4.91

###

# assayedTarget: human leukocyte elastase (HLE) (Homo sapiens, UniProt P08246)
# Construct: applying a density gradient centrifugal operation so as to obtain neutrophils
# Sequence (P08246 30-267): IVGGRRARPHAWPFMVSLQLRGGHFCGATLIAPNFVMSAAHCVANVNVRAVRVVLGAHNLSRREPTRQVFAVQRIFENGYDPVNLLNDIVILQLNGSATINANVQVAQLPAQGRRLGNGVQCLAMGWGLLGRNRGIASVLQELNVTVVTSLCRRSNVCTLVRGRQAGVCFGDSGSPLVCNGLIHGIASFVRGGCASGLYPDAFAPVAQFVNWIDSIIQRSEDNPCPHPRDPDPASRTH
# assayNotes: HLE inhibitory activity
# conditionLabel: HLE 5.63 nM, substrate 0.2625 mM, pH 8.6, 37° C.
quantityName: IC50 (nM)

Reference set (6 entries):
sampleSmiles | unitsLabel | IC50
CC(=O)N(CCC(=O)N[C@H](c1nc2cccc(C)c2c(=O)o1)C(C)C)C1c2ccccc2-c2ccccc21 | nM | 240
Cc1cccc2nc(C(C)(C)NC(=O)COC3c4ccccc4-c4ccccc43)oc(=O)c12 | nM | 1000
Cc1cccc2nc([C@@H](NC(=O)C=C3c4ccccc4-c4ccccc43)C(C)C)oc(=O)c12 | nM | 640
Cc1cccc2nc(CNC(=O)COC3c4ccccc4-c4ccccc43)oc(=O)c12 | nM | 1280
Cc1cccc2nc([C@@H](NC(=O)COC3c4ccccc4-c4ccccc43)C(C)C)oc(=O)c12 | nM | 510
Cc1cccc2nc([C@H](CC(C)C)NC(=O)OCC3c4ccccc4-c4ccccc43)oc(=O)c12 | nM | 730

1: Cc1cccc2nc([C@@H](NC(=O)CNC(=O)C3c4ccccc4-c4ccccc43)C(C)C)oc(=O)c12
2: Cc1cccc2nc([C@@H](NC(=O)OCC3c4ccccc4-c4ccccc43)C(C)C)oc(=O)c12
Between 1 and 2 , which one has the lower reported IC50 value? Give the label of your selection. 2

###

# assayedTarget: bovine pancreatic α-chymotrypsin (CYT) (Bos taurus)
# Construct: purchased Sigma Inc; host or cells: bovine pancreas (by its name)
# assayNotes: CYT inhibitory activity
# Assay type: biochemical
# conditionLabel: CYT 3.4 nM, substrate 0.273 mM, pH 8.0
pIC50: −log10 of the molar value.
quantityName: pIC50

sampleSmiles | quantityName | result
Cc1cccc2nc([C@@H](NC(=O)OCC3c4ccccc4-c4ccccc43)C(C)C)oc(=O)c12 | pIC50 | 5.32
Cc1cccc2nc([C@@H](NC(=O)COC3c4ccccc4-c4ccccc43)C(C)C)oc(=O)c12 | pIC50 | 5.46
